procedure.summary: Plasma clearance in Sprague-Dawley rat at 0.15 mg/kg, iv
Type: ADME, organism-based
Parameters: dose 0.15 mg/kg, route intravenous
experimental.readout: clearance (L/h/kg)
One number for each entry, in L/h/kg.

Query: Read off the recorded clearance for COc1cc2[nH]c(C)c(-c3ccc(Oc4ccc(OC(F)(F)F)cc4)cc3F)c(=O)c2cc1Cl
Result: 0.018

====

Test system: Liver microsome
procedure.summary: Half life in human liver microsomes at 1 uM by LC-MS analysis
Format: ADME
experimental.readout: t1/2
State the result as a value with its unit after it.

Report t1/2 for each item below.
1. COc1cc2[nH]c(C)c(-c3ccc(OCc4ccccc4)c(F)c3)c(=O)c2cc1Cl
2. COc1cc2[nH]c(C)c(-c3ccc(COc4ccc(OC(F)(F)F)cc4)cc3)c(=O)c2cc1Cl

Result:
["0.383 h", "2.15 h"]

Please go through the list and note t1/2 for each compound.
1. COc1cc2[nH]c(C)c(-c3ccc(F)cc3C)c(=O)c2cc1Cl
2. COc1cc2[nH]c(C)c(-c3ccc(C(F)(F)F)cc3C)c(=O)c2cc1Cl

Result:
1.93 h
3.93 h

====

Test system: J774
procedure.summary: Cytotoxicity against mouse J774 cells after 72 hrs by CellTiter 96 assay
Format: cell-based
protocol.conditions: J774, 72 h
Can you tell me EC50 for the items I'm about to list?

Consider the worked cases shown below.
1. COC(=O)c1ccc(-c2c(C)[nH]c3cc(OC)c(Cl)cc3c2=O)cc1 ... > 27.9 µM
2. COc1cc2[nH]c(C)c(-c3ccc(-c4ccc(C(F)(F)F)cc4F)nc3)c(=O)c2cc1Cl ... > 21.6 µM
3. CCOc1cc(-c2c(C)[nH]c3cc(OC)c(Cl)cc3c2=O)ccc1F ... > 27.6 µM
4. COc1cc2[nH]c(C)c(-c3ccc(-c4ccccc4)cc3)c(=O)c2cc1Cl ... > 26.6 µM

Hi team, please reply with EC50 for each item in this list.
1. COc1cc2[nH]c(C)c(-c3ccc(C(F)(F)F)cc3)c(=O)c2cc1Cl
2. COc1cc2[nH]c(C)c(-c3ccc(C(=O)O)cc3)c(=O)c2cc1Cl
3. COc1cc2[nH]c(C)c(-c3ccc(CO)cc3)c(=O)c2cc1Cl
4. COc1cc2[nH]c(C)c(-c3cc4ccccc4o3)c(=O)c2cc1Cl
5. COc1cc2[nH]c(C)c(-c3c(C)cc(C)cc3C)c(=O)c2cc1Cl
6. COc1cc2[nH]c(C)c(-c3cc4ccccc4s3)c(=O)c2cc1Cl
7. COc1cc2[nH]c(C)c(-c3cccc4c3oc3ccccc34)c(=O)c2cc1Cl
8. COc1cc2[nH]c(C)c(-c3c(F)cccc3F)c(=O)c2cc1Cl

Result:
> 27.2 µM
> 29.1 µM
> 30.3 µM
> 29.4 µM
2.99 µM
> 28.1 µM
> 25.7 µM
> 29.8 µM

====

procedure.summary: Volume of distribution in Sprague-Dawley rat at 0.15 mg/kg, iv
Format: ADME, organism-based
Design: dose 0.15 mg/kg, route intravenous
protocol.conditions: in vivo
experimental.readout: Vd (L/kg)
One number for each entry, in L/kg.

Query: Given the molecule COc1cc2[nH]c(C)c(-c3ccc(Oc4ccc(OC(F)(F)F)cc4)cc3F)c(=O)c2cc1Cl , write its reported Vd.
Result: 0.7
